- TARGET_SYSTEM: UniProt P34972
- Sequence (P34972 whole entry): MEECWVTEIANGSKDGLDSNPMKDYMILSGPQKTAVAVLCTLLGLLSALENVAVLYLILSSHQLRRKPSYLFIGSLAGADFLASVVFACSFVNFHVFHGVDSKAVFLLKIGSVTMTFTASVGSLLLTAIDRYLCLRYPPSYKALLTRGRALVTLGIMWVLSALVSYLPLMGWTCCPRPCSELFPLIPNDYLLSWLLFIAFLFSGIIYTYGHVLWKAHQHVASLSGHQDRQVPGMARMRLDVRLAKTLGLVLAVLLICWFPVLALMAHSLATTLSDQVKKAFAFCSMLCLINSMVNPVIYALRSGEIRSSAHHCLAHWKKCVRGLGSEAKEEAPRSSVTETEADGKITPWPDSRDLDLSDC
- TEST_METHOD_NOTES: Displacement of [3H]CP55940 from human CB2 receptor expressed in HEK293 cell membrane assessed as inhibition constant incubated for 1 hr by liquid scintillation counting method
- Format: cell membranes
METRIC: pKi
To interpret pKi, take it as minus log10 of a concentration measured in moles per litre.

[ask] I would be grateful if you could share the reported pKi for CCC(C)(C)c1ccc2c(c1)OC(C)(C)C1CC=C(C)CC21 (configuration not stated) .
[reply] 7.85

[ask] Report pKi for CCCC(C)(C)c1ccc2c(c1)OC(C)(C)C1CC=C(C)CC21 (configuration not stated) please.
[reply] 8.47
